Provenance of the data: patent US20250042862A1

# study system: human recombinant LSD1 protein (Homo sapiens (Human))
# assay procedure: In vitro enzyme inhibition activity assay - LSD1 (Lance Ultra TR-FRET)
# measurement parameters: all compounds tested in the form of hydrochloride
assay readout: IC50

In the examples that follow, each entry is paired with its recorded IC50.
In [3]: df
Out[3]:
                  compound_structure_string  assay_readout        result
0  N#Cc1ccc(-c2nc(N3CCC(N)CC3)nc3ccc(-c4ccccc4F)cc23)cc1F           IC50  30 to 300 nM
1  N#Cc1ccc(-c2nc(NC[C@H]3CCNC3)nc3ccc(-c4c(Cl)cccc4Cl)cc23)cc1F           IC50       ≤ 30 nM

Moving on to the next molecule.
Q: Please provide the recorded IC50 for N#Cc1ccc(-c2nc(N3CCC[C@H](N)CC3)nc3ccc(-c4c(F)cccc4C(F)(F)F)cc23)cc1F , tested on human recombinant LSD1 protein (Homo sapiens (Human)).
Result: ≤ 30 nM

---

# study system: human recombinant LSD1 protein (Homo sapiens (Human), UniProt O60341)
# assay procedure: In vitro enzyme inhibition activity assay - LSD1 (Lance Ultra TR-FRET)
# measurement parameters: all compounds tested in the form of hydrochloride
Below, each entry is listed alongside its reported IC50.

>>> print(df.to_string())
                                   compound  assay_readout        result
0  N#Cc1ccc(-c2nc(NC[C@H]3CCNC3)nc3ccc(-c4c(Cl)cccc4C(F)(F)F)cc23)cc1F           IC50  30 to 300 nM

Q: Given the entry N#Cc1ccc(-c2nc(N3CCC[C@H](N)C3)nc3ccc(-c4c(F)cccc4C(F)(F)F)cc23)cc1F , report its measured IC50.
Result: 30 to 300 nM

Q: Given the entry N#Cc1ccc(-c2nc(N3CCCC(N)C3)nc3ccc(-c4c(F)cccc4C(F)(F)F)cc23)cc1F (centres unmarked) , report its measured IC50.
Result: ≤ 30 nM

Q: Given the entry N#Cc1ccc(-c2nc(NC[C@H]3CCNC3)nc3ccc(-c4ccccc4F)cc23)cc1F , report its measured IC50.
Result: 30 to 300 nM

Q: Given the entry N#Cc1ccc(-c2nc(NC[C@H]3CCNC3)nc3ccc(-c4c(F)ccc(O)c4F)cc23)cc1F , report its measured IC50.
Result: 30 to 300 nM
